Entry source: patent US9994547B2

# study_system: UniProtKB Q9UHD2
# procedure_summary: Inhibition of TBK1 Enzyme (Example A)
# Format: biochemical
# details: -log(IC50), IC50 molar; 3 nM TBK1, 25 μM ATP, 60 min RT
reported_endpoint: TBK1 Inhibition (pIC50)

| compound | TBK1 Inhibition (pIC50) |
| --- | --- |
| CN1CCN(C(=O)CNc2cc(-c3cnc(NC(=O)C4CC4)cn3)cnc2C#N)CC1 | 5.5 |

1: N#Cc1ncc(-c2cnc(NC(=O)C3CC3)cn2)cc1NCC(=O)N1CC2(COC2)C1
2: CCC(Nc1cc(-c2cnc(NC(=O)C3CC3)cn2)ccc1C#N)C(=O)N(C)CCO (centres unmarked)
stdin: Which of the two items, 1 and 2 , has the greater recorded TBK1 Inhibition (pIC50)? // output: label of the selected item
stdout: 2

---

# study_system: UniProt Q9UHD2
# procedure_summary: Inhibition of TBK1 Enzyme (Example A)
# Type: biochemical
# details: -log(IC50), IC50 molar; 3 nM TBK1, 25 μM ATP, 60 min RT
reported_endpoint: TBK1 Inhibition (pIC50)

| molecule | reported_endpoint | data_value |
| --- | --- | --- |
| N#Cc1ccc(-c2cnc(NC(=O)C3CC3)cn2)cc1NCC(=O)N1CC(F)(F)C1 [Example 24] | TBK1 Inhibition (pIC50) | 6.8 |
| CC1CN(C(=O)CNc2cc(-c3cnc(NC(=O)C4CC4)cn3)cnc2C#N)CCO1 (stereo not drawn) [Example 103] | TBK1 Inhibition (pIC50) | 6.8 |
| COCCN(CC(F)(F)F)C(=O)CNc1cc(-c2cnc(NC(=O)C3CC3)cn2)cnc1C#N [Example 77] | TBK1 Inhibition (pIC50) | 7.2 |
| C[C@@H](O)[C@@H](Nc1cc(-c2cnc(NC(=O)C3CC3)cn2)cnc1C#N)C(=O)N(C)C [Example 37] | TBK1 Inhibition (pIC50) | 6.9 |
| CC(O)CN(C)C(=O)CNc1cc(-c2cnc(NC(=O)C3CC3)cn2)ccc1C#N (stereo not drawn) [Example 134] | TBK1 Inhibition (pIC50) | 6.9 |
| COCCN(C)C(=O)[C@H](C)Nc1cc(-c2cnc(NC(=O)C3CC3)cn2)ccc1C#N [Example 17] | TBK1 Inhibition (pIC50) | 7.1 |
| C[C@H](Nc1cc(-c2cnc(NC(=O)[C@H]3C[C@H]3C)cn2)cnc1C#N)C(=O)N(C)C [Example 109] | TBK1 Inhibition (pIC50) | 7.2 |
| CCC(Nc1cc(-c2cnc(NC(=O)C3CC3)cn2)cnc1C#N)C(=O)N(C)CCO (stereo not drawn) [Example 35] | TBK1 Inhibition (pIC50) | 6.9 |
| COCC(Nc1cc(-c2cnc(NC(=O)C3CC3)cn2)cnc1C#N)C(=O)N(C)C (stereo not drawn) [Example 42] | TBK1 Inhibition (pIC50) | 6.8 |

---

# study_system: Full length human TBK1 (Homo sapiens (Human), UniProt Q9UHD2)
# Sequence (Q9UHD2 whole entry): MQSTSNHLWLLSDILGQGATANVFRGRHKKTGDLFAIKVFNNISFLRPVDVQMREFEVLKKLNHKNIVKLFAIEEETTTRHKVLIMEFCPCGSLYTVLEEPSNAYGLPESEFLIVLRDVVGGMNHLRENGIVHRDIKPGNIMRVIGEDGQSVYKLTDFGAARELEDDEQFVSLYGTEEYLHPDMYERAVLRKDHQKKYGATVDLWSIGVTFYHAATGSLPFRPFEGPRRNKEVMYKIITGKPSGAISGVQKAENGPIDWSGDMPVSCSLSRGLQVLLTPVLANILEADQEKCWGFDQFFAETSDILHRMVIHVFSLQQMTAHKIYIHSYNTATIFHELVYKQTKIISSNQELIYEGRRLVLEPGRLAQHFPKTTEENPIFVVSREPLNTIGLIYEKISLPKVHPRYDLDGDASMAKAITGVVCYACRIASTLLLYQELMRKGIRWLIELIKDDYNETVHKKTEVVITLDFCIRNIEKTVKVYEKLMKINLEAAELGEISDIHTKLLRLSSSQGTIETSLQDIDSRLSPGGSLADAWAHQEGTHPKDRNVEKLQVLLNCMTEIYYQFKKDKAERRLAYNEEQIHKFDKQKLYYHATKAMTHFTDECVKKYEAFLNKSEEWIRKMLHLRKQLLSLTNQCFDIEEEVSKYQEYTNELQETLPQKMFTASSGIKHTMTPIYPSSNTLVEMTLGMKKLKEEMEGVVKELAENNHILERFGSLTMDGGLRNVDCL
# procedure_summary: Inhibition of TBK1 Enzyme (Example A)
# Assay type: biochemical
# details: -log(IC50), IC50 molar; 3 nM TBK1, 25 μM ATP, 60 min RT
# Procedure: Full length human TBK1 with an N-terminal His-tag was cloned into the pFastBacl vector and was transfected into Sf9 cells. 72 hours later the virus was harvested and amplified through two additional rounds of infections. Then 400 mL of the resulting virus stock was used to infect 10 L of Sf9 cells at a density of 2×10^6 cells/mL. […] TBK1 inhibition is determined using a 384 well plate format in buffer containing 20 mM Hepes, pH 7.4, 10 mM MgCl2, 1 mM EDTA, 0.01% Brij-L23, 1 mM DTT. […]
reported_endpoint: TBK1 Inhibition (pIC50)

| molecule | TBK1 Inhibition (pIC50) |
| --- | --- |
| C[C@H](Nc1cc(-c2cnc(NC(=O)C3CC3)cn2)cnc1C#N)C(=O)N(C)CCF | 8.0 |
| CC1CC1C(=O)Nc1cnc(-c2cnc(C#N)c(NCC(N)=O)c2)cn1 (centres unmarked) | 5.6 |
| C[C@@H](Nc1cc(-c2cnc(NC(=O)C3CC3)cn2)cnc1C#N)C(=O)N(C)CC(F)F | 7.0 |
| N#CCN(CCO)C(=O)CNc1cc(-c2cnc(NC(=O)C3CC3)cn2)cnc1C#N | 7.2 |
| N#Cc1ncc(-c2cnc(NC(=O)C3CC3)cn2)cc1NCC(=O)N1CCOC[C@@H]1CF | 6.9 |
| CN(CCC#N)C(=O)CNc1cc(-c2cnc(NC(=O)C3CC3)cn2)cnc1C#N | 6.9 |
| CC[C@H](Nc1cc(-c2cnc(NC(=O)C3CC3)cn2)cnc1C#N)C(=O)N(C)CCO | 7.1 |
| CN(CC(F)F)C(=O)[C@H](CO)Nc1cc(-c2cnc(NC(=O)C3CC3)cn2)cnc1C#N | 7.3 |
| CN(C)C(=O)[C@@H](CC(F)F)Nc1cc(-c2cnc(NC(=O)C3CC3)cn2)cnc1C#N | 6.6 |
| CN(CC(F)(F)F)C(=O)CNc1cc(-c2cnc(NC(=O)C3CC3)cn2)cnc1C#N | 7.5 |
| C[C@H](Nc1cc(-c2cnc(NC(=O)C3CC3)cn2)cc(F)c1C#N)C(=O)N(C)C | 7.6 |
| C[C@H](Nc1cc(-c2cnc(NC(=O)C3CC3)cn2)cnc1C#N)C(=O)N1CCO[C@@H]1C(F)(F)F | 7.4 |
| CCN(C)C(=O)CNc1cc(-c2cnc(NC(=O)C3CC3)cn2)ccc1C#N | 7.4 |
| CN(CCS(C)(=O)=O)C(=O)CNc1cc(-c2cnc(NC(=O)C3CC3)cn2)cnc1C#N | 6.6 |
| C[C@@H](Nc1cc(-c2cnc(NC(=O)C3CC3)cn2)ccc1C#N)C(=O)N(C)C | 7.1 |
| CC[C@H](Nc1cc(-c2cnc(NC(=O)C3CC3)cn2)cnc1C#N)C(=O)NCC(F)F | 7.2 |
| C[C@H](O)[C@H](Nc1cc(-c2cnc(NC(=O)C3CC3)cn2)cnc1C#N)C(=O)N(C)C | 7.0 |
| C[C@@H](O)[C@H](Nc1cc(-c2cnc(NC(=O)C3CC3)cn2)cnc1C#N)C(=O)N(C)C | 6.8 |
| COC1CN(C(=O)CNc2cc(-c3cnc(NC(=O)C4CC4)cn3)ccc2C#N)C1 | 6.0 |
| CN(C)C(=O)C(CC(F)F)Nc1cc(-c2cnc(NC(=O)C3CC3)cn2)ccc1C#N (centres unmarked) | 8.1 |
| CC(O)CN(CC(F)(F)F)C(=O)CNc1cc(-c2cnc(NC(=O)C3CC3)cn2)cnc1C#N (centres unmarked) | 7.5 |
| C[C@H](Nc1cc(-c2cnc(NC(=O)C3CC3)cn2)cnc1C#N)C(=O)N(C)[C@H](C)C#N | 7.6 |
| CN(C(=O)CNc1cc(-c2cnc(NC(=O)C3CC3)cn2)ccc1C#N)C1CC1 | 7.4 |
| C[C@H](Nc1cc(-c2cnc(NC(=O)C3CC3)cn2)ccc1C#N)C(=O)N1CCC1 | 6.7 |
| C[C@H](Nc1cc(-c2cnc(NC(=O)[C@@H]3C[C@H]3C)cn2)cnc1C#N)C(=O)N(C)C | 7.8 |
| C[C@H](Nc1cc(-c2cnc(NC(=O)C3CC3)cn2)cnc1C#N)C(=O)NCC(F)F | 7.7 |
| CN(C(=O)CNc1cc(-c2cnc(NC(=O)C3CC3)cn2)cnc1C#N)C1CCOC1 (centres unmarked) | 6.6 |
| C[C@H](Nc1cc(-c2cnc(NC(=O)C3CC3)cn2)ccc1C#N)C(=O)NCCO | 6.3 |
| CC1(O)CCN(C(=O)CNc2cc(-c3cnc(NC(=O)C4CC4)cn3)ccc2C#N)C1 (centres unmarked) | 6.2 |
